Entry source: PubChem BioAssay

# Assay Info: blockers of DNA damage checkpoint Chk1 activation – imaging, HeLa, hydroxyurea, phospho-Chk1 nuclear intensity, primary screen (AID 1187); note: test concentration not given here
# Condition Label: hydroxyurea-induced phospho-Chk1 immunofluorescence imaging, higher = more signal
Property Name: z-score
One number for each entry.

Answered cases to consult:
Compound	Measured Number
C=CCC(OC(C)=O)[C@@H]1[C@@H](N(Cc2ccc(-c3ccccc3)cc2)C(=O)Cc2ccc(F)cc2)c2cc(OCCCO)ccc2N1C(=O)c1ccc2ccccc2c1 (stereo partly specified)	-0.009
CN(C)CCCC[C@@H]1NC(=O)[C@H]2C[C@@H](C(=O)NCCCCCN)[C@@H](c3cccc(OCCO)c3)N2C1=O	0.729
COC(=O)[C@@]1(Cc2ccc(OC)cc2)[C@H]2c3cc(C(=O)N4CCCC4)n(CCc4ccc(O)c(O)c4)c3C[C@H]2CN1C(=O)c1ccccc1	0.379
O=C1O[C@@H](c2ccccc2)[C@@H](c2ccccc2)N2[C@@H](c3ccccc3OCCO)[C@]3(C(=O)Nc4ccc(C#CC5(O)CCCCCC5)cc43)[C@@H](C(=O)N3CCN(c4ncccn4)CC3)[C@H]12	0.451
COCC(=C=CC[C@@H](O)c1ccc(OCCO)cc1)C[C@@H](O)c1ccccn1	0.265

Can you give me z-score for all of these, one by one?
1. C=C(/C(=C/C[C@H](OC(C)=O)c1ccc(OCCO)cc1)c1cc(C(=O)OC)ccc1OC)C(C)C
2. O=C1NC(=O)C2C1C=CC(C(O)c1ccc(I)cc1)N2Nc1ccccn1 (stereo unspecified)
3. C=CC[C@]1(C(N)=O)N=C(c2ccc(OCCCO)cc2)O[C@H]1c1ccccc1
4. COc1ccc(C(O)C2C=CC3C(=O)N(C)C(=O)C3N2NC(=O)OC(C)(C)C)c2ccccc12 (stereo unspecified)
5. COC(=O)[C@@]1(Cc2ccc(OC)cc2)[C@H]2c3cc(C(=O)N4CCCC4)n(CCCNc4ncc(C(F)(F)F)cc4Cl)c3C[C@H]2CN1C(=O)c1ccccc1
6. C#CCOc1ccc(C[C@@H](C(=O)OC)N(CC#C)[C@@H](/C=C/C2CC2)[C@H](O)Cc2ccccc2)cc1

1. 1.29
2. 0.534
3. 0.327
4. 0.704
5. -0.101
6. -0.432

Can you give me z-score for all of these, one by one?
1. O=C(CS)NCCCCCNC(=O)[C@@H]1C[C@@H]2C(=O)NCC(=O)N2[C@@H]1c1ccc(O)cc1
2. CN1C(=O)C2C=CC(C(O)C=Cc3ccc([N+](=O)[O-])cc3)N(Nc3ccccc3)C2C1=O (stereo unspecified)
3. C=C(C(=O)CC[C@H](OC(C)=O)c1ccccc1OCCO)C(C)C
4. CCCC[C@H]1C[C@@H]1[C@@H]1N(P(=O)(c2ccccc2)c2ccccc2)C[C@@](O)(c2ccccc2)CC12CC2
5. Cc1ccc(S(=O)(=O)N2C[C@@H](C(=O)O)[C@H](Sc3ccccc3)C[C@H]2c2ccccc2)cc1
6. COc1ccc(CCNC(=O)[C@@]2(C)c3ccccc3C(=O)N(c3ccc(C)cn3)[C@H]2c2ccc(CO)cc2)cc1

1: 0.425; 2: -0.733; 3: -0.0797; 4: 0.228; 5: 0.283; 6: 0.822
